RUN DESCRIPTION: AUC (0 to 8 hrs) in C57BL/6J mouse thigh muscle at 50 mg/kg, po administered as single dose by LC-MS analysis
Type: ADME, organism-based
Design: dose 50 mg/kg, time < 8 hr, route oral
PARAMETER: AUC(0-t) at 8 h
Mention the unit after the number when you answer.

Task item: Need AUC(0-t) at 8 h of C[C@H]1COCCN1c1nc(-c2cnc(N)cc2C(F)F)nc(N2CCOCC2)n1 , thanks.
Reply: 39200 ng·h/mL

---

RUN DESCRIPTION: Fraction unbound in rat brain
Type: ADME, tissue-based
PARAMETER: fraction unbound

Task item: State the recorded fraction unbound for this entry: C[C@H]1COCCN1c1nc(-c2cnc(N)cc2C(F)F)nc(N2CCOCC2)n1
Reply: 0.08

---

RUN DESCRIPTION: AUClast at steady state in female Beagle dog at 3 mg/kg/day, po after 4 weeks
Type: ADME, organism-based, Canis lupus familiaris
RUN PARAMETERS: in vivo
PARAMETER: AUC(0-t) at 672 h
Reply with the number, then its unit.

Task item: So what's the measured AUC(0-t) at 672 h for this one? C[C@H]1COCCN1c1nc(-c2cnc(N)cc2C(F)F)nc(N2CCOCC2)n1
Reply: 1070 ng·h/mL

---

// reported half-life per item
RUN DESCRIPTION: Half-life in mouse hepatocytes
Type: ADME, cell-based, Hepatocyte

As a guide, the following entries are already answered.
MOLECULE	half-life
C[C@H]1COCCN1c1nc(-c2cnc(N)cc2C(F)F)nc(N2CCOCC2)n1	142 min
O=c1ccc2ccc(O)cc2o1 [UMBELLIFERONE]	11.9 min

Proceeding to the next molecule to report its half-life.
Task item: Can you share its half-life? I mean this molecule: CCOc1ccc2ccc(=O)oc2c1
Reply: 18.7 min

---

RUN DESCRIPTION: AUC (0 to 8 hrs) in C57BL/6J mouse brain at 50 mg/kg, po administered as single dose by LC-MS analysis
Assay type: ADME, organism-based
Parameters: dose 50 mg/kg, time < 8 hr, route oral
PARAMETER: AUC(0-t) at 8 h (ng·h/mL)
Report the figure in ng·h/mL without appending any unit label.

Task item: Fill blank: measured AUC(0-t) at 8 h of the compound C[C@H]1COCCN1c1nc(-c2cnc(N)cc2C(F)F)nc(N2CCOCC2)n1 is ____.
Reply: 46500

---

RUN DESCRIPTION: AUC (0 to 8 hrs) at steady state in male Wistar rat at 1 mg/kg/day, po after 4 weeks
Type: ADME, organism-based
Set-up: dose 1 mg/kg/day, time < 8 hr, route oral
RUN PARAMETERS: in vivo
PARAMETER: AUC at 8 h (ng·h/mL)
A number alone suffices; assume ng·h/mL.

Task item: Name the reported AUC at 8 h value associated with the compound C[C@H]1COCCN1c1nc(-c2cnc(N)cc2C(F)F)nc(N2CCOCC2)n1
Reply: 335

---

RUN DESCRIPTION: Toxicity in po dosed male Beagle dog
Assay type: organism-based, Canis lupus familiaris
RUN PARAMETERS: in vivo
PARAMETER: NOAEL (mg/kg/day)
Answer with a number only, understood to be in mg/kg/day.

Task item: Recorded NOAEL of C[C@H]1COCCN1c1nc(-c2cnc(N)cc2C(F)F)nc(N2CCOCC2)n1 , please.
Reply: 1

The reported measurements were obtained from ChEMBL document CHEMBL4359834.
